Tested on: SNB-75 CNS
Test: NCI tumour cell line growth inhibition, 48 h; in the data active = GI50 below about 0.43 µM; inactive = the rest
Hi there, use one of these labels in your reply, thanks! Yes = active, No = inactive

## Task Which outcome was assigned to CCN(Cc1c(F)cccc1Cl)c1ccc(CO)c(Cl)c1 in this test?
## Result No

## Task Also COC(=O)N[C@H]1CCc2c(Cl)c(OC)c(OC)c(OC)c2-c2ccc(SC)c(=O)cc21 ?
## Result Yes

## Task Same question for C[N+](C)=c1ccc2nc3c(cc(NCCCNc4cc5oc6cc(=[N+](C)C)ccc-6nc5c5ccccc45)c4ccccc43)oc-2c1 please.
## Result No

====

Tested on: SR leukemia
Test: NCI tumour cell line growth inhibition, 48 h
For each entry below, report its TGI value.

## Task For the compound shown here, CS(=O)(=O)Nc1ccc2ccccc2c1 , give the reported TGI.
## Result > 100 µM

## Task Also CO[C@@]1(c2ccccc2)O[C@H]2OCCC2[C@H]1c1ccc(Cl)cc1 (stereo not given in full) ?
## Result > 100 µM

## Task Param item: COC(=O)N[C@H]1CCc2c(Cl)c(OC)c(OC)c(OC)c2-c2ccc(SC)c(=O)cc21
## Result > 66.6 µM

## Task Entry to check: COc1cc(/C=C2\CCCC3=C2N=C2SC(C)=NN2C3c2cc(OC)c(OC)c(OC)c2)cc(OC)c1OC (stereo not given)
## Result > 100 µM

## Task Same question for CCCCn1c(=O)c(/C=C/C(=O)/C=C/c2cc3ccccc3n(CCCC)c2=O)cc2ccccc21 please.
## Result > 100 µM

## Task Next up: C/C(=C\CSCC(N)C(=O)O)CC/C=C(\C)CNc1ccccc1 (stereo not given)
## Result > 100 µM

## Task Ok, now CCCCN(CCCC)CC(C(C)=O)C(c1ccccc1)c1c(O)c2ccccc2oc1=O (stereo not given)
## Result > 100 µM

## Task # iterate: C=C1CCC2C3(C)COC(c4ccccc4Cl)OC3CCC2(C)C1/C=C/C1=CCOC1=O (stereo not given)
## Result > 100 µM

## Task And the next one, NC(=O)c1ccc[n+](C2=C([O-])c3ccccc3C(=O)/C2=N\S(=O)(=O)c2ccccc2)c1 ?
## Result > 100 µM

## Task Also check Cc1ccc(C)c(COCCOCn2cc(N3CCOCC3)c(=O)[nH]c2=O)c1
## Result > 100 µM

## Task Here is the next compound: COc1cc(NCCCCCN=C(N)NC(N)=NC(C)C)c2ncccc2c1
## Result 15.8 µM

## Task Also c1cncc(CSc2nc3ccccc3nc2-c2cccs2)c1 , if possible.
## Result > 100 µM

## Task Same lookup for Cc1cc(-c2cc(C(C)(C)C)c(O)c(C(C)(C)C)c2)c(C)cc1-c1cc(C(C)(C)C)c(O)c(C(C)(C)C)c1 , please.
## Result > 100 µM

## Task Continue with COc1cc2cnc3c4cc(OCc5ccccc5)ccc4ccc3c2cc1OC
## Result 27.1 µM

## Task Check OC(CC(O)(C(F)(F)Cl)C(F)(F)Cl)c1ccccc1 (stereo not given) too.
## Result > 10 µM

## Task Param item: CC(C)(C)N=NC(C)(C)N=C=O
## Result > 100 µM

## Task Queued: O=[N+]([O-])c1ccc(-c2csc(=[N+]3CCCCC3)s2)cc1
## Result > 83.3 µM

## Task One more compound: CC1(C)C=C(/C=C2/N(S(=O)(=O)C(F)(F)F)C(/C=C3/N(S(=O)(=O)C(F)(F)F)C(C)(C#N)CC3(C)C)=CC2(C)C)N=C1/C=C1/CC(C)(C)C(=O)N1 (stereo not given)
## Result > 100 µM

## Task // same read-out, input: CCN(Cc1c(F)cccc1Cl)c1ccc(CO)c(Cl)c1
## Result 42.7 µM

## Task How about Cc1cc(O)c(-c2ccc([C@@H](C)CN(C)C)cc2)c2c1[nH]c(=O)c1sccc12 ?
## Result 26.6 µM

Origin of values: PubChem BioAssay (NCI)
